Biological target: CaHse1
Experiment: SPOT peptide array binding signal intensity (averaged, normalized) (arbitrary units (background-subtracted, floor 0; scale differs between SH3 domains)); higher = stronger binding of the SH3 domain to the peptide
Property: SPOT peptide array binding signal intensity; scope: individual binders
quantityKind: SPOT peptide array binding signal intensity

>>> print(df.to_string())
            binder  recordedresult
0  EQEEIAPSLPSRNSI               4
1  PALPSLPPPPLLNVD            0.25
2  RRLRDKYKLPIVDAD            12.2
3  YHSRRHPLALGFKYV            38.5

The reported measurements were obtained from the supplement of paper PMC4466140.
